test system: HPV-16; experiment: qPCR sensitivity against HPV-HNSCC tumor samples diluted among 10 ng normal human DNA; details: Sample # 18
Below, each entry is listed with its recorded Threshold of tumor cell numbers for HPV-16 detection.

Please review the entries below; each comes with its answer.
molecule	readout_value
E6: previously designed (historical) HPV-16 E6 primers and Taqman probe, SEQ ID NO: 7-9, positive control (nucleic acid, Taqman probe, labels not given here) DNA 1: TCAGGACCCACAGGAGCG DNA 2: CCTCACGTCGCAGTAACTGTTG DNA 3: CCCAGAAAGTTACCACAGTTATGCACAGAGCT	6.0 tumor cells
E7: previously designed (historical) HPV-16 E7 primers and Taqman probe, SEQ ID NO: 10-12; part of CLIA test (nucleic acid, Taqman probe, labels not given here, part of CLIA test) DNA 1: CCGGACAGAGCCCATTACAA DNA 2: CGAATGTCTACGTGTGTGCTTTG DNA 3: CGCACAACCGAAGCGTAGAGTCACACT	6.0 tumor cells
HR E5L2-4: primer/probe set for junction between E5 and L2, SEQ ID NO: 55-57 (same as SEQ ID NO: 4-6) (nucleic acid, chemistry not given here) DNA 1: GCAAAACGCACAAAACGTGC DNA 2: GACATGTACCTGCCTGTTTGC DNA 3: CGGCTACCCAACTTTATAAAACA	6.0 tumor cells

# input Could you share which Threshold of tumor cell numbers for HPV-16 detection value was measured for BR E1-5: HPV-16 E1 region primer/probe set, SEQ ID NO: 40-42 (same as SEQ ID NO: 1-3) (nucleic acid, chemistry not given here) DNA 1: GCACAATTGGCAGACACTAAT DNA 2: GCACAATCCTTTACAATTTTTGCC DNA 3: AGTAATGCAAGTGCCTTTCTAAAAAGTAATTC ?
# output 0.2 tumor cells

# input Requested field: Threshold of tumor cell numbers for HPV-16 detection. Item: BR E1-6: HPV-16 E1 region primer/probe set, SEQ ID NO: 43-45 (nucleic acid, chemistry not given here) DNA 1: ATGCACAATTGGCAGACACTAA DNA 2: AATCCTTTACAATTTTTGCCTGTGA DNA 3: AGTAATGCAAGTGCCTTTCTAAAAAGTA
# output 1.2 tumor cells

# input Recorded Threshold of tumor cell numbers for HPV-16 detection for BR E1-4: HPV-16 E1 region primer/probe set, SEQ ID NO: 37-39 (nucleic acid, chemistry not given here) DNA 1: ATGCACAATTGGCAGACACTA DNA 2: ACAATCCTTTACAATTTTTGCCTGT DNA 3: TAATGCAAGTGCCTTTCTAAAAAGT , please?
# output 1.2 tumor cells

# input Item under review: BR E6-1: HPV-16 E6 region (172-373 bp) primer/probe set, SEQ ID NO: 58-60 (nucleic acid, chemistry not given here) DNA 1: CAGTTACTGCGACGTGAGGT DNA 2: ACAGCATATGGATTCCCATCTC DNA 3: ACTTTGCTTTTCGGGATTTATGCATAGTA . Reported Threshold of tumor cell numbers for HPV-16 detection?
# output 1.2 tumor cells
